Some compounds, each annotated with its measured Fold change in IC50 (IC50 [Drug + Cobicistat]/IC50 [Drug]).
test system: BT-549; experiment: Cell proliferation assay (ATPlite), drug with vs without cobicistat; type: cell-based; settings: BT-549 cell line; 120 hours incubation
reported metric: Fold change in IC50 (IC50 [Drug + Cobicistat]/IC50 [Drug]) (fold)

[[record]]
smiles_entry = "CC[C@]1(O)C[C@H]2CN(CCc3c([nH]c4ccccc34)[C@@](C(=O)OC)(c3cc4c(cc3OC)N(C=O)[C@H]3[C@@](O)(C(=O)OC)[C@H](OC(C)=O)[C@]5(CC)C=CCN6CC[C@]43[C@@H]65)C2)C1"
unit_label = "fold"
reported_measurement = 2.9

[[record]]
smiles_entry = "CC[C@]1(O)C[C@@H]2CN(CCc3c([nH]c4ccccc34)[C@@](C(=O)OC)(c3cc4c(cc3OC)N(C)[C@H]3[C@@](O)(C(=O)OC)[C@H](OC(C)=O)[C@]5(CC)C=CCN6CC[C@]43[C@@H]65)C2)C1"
unit_label = "fold"
reported_measurement = 3.3

[[record]]
smiles_entry = "CC(=O)O[C@H]1C(=O)[C@@]2(C)[C@H]([C@H](OC(=O)c3ccccc3)[C@]3(O)C[C@H](OC(=O)[C@H](O)[C@@H](NC(=O)c4ccccc4)c4ccccc4)C(C)=C1C3(C)C)[C@]1(OC(C)=O)CO[C@@H]1C[C@@H]2O"
unit_label = "fold"
reported_measurement = 1.2

[[record]]
smiles_entry = "Cc1nc(Nc2ncc(C(=O)Nc3c(C)cccc3Cl)s2)cc(N2CCN(CCO)CC2)n1"
unit_label = "fold"
reported_measurement = 1.5

[[record]]
smiles_entry = "CC(=O)O[C@@]12CO[C@@H]1C[C@H](O)[C@@]1(C)C(=O)[C@H](O)C3=C(C)[C@@H](OC(=O)[C@H](O)[C@@H](NC(=O)OC(C)(C)C)c4ccccc4)C[C@@](O)([C@@H](OC(=O)c4ccccc4)[C@H]21)C3(C)C"
unit_label = "fold"
reported_measurement = 1.4

[[record]]
smiles_entry = "COc1cccc2c1C(=O)c1c(O)c3c(c(O)c1C2=O)C[C@@](O)(C(=O)CO)C[C@@H]3O[C@H]1C[C@H](N)[C@H](O)[C@H](C)O1"
unit_label = "fold"
reported_measurement = 1.5

